# Tested on: NCI-H522
# experimentDescription: NCI tumour cell line growth inhibition, 48 h
Counter-ions that a name gives are not always drawn. Activity calls are given as the source filed them. Cut-off read from the data, not from the text of the source: active = GI50 up to about 1.1 µM and inactive = higher.
Choose the fitting class; nothing outside active, inactive is accepted.

Example cases with answers are listed next.
O=C1c2c(O)cccc2-c2nn(CCNCCO)c3ccc(NCCNCCO)c1c23 [LOSOXANTRONE HYDROCHLORIDE] | active
CC1=CC(=O)N(n2c(C)n[nH]c2=O)C1=O | inactive
COc1cc([C@@H]2c3cc4c(cc3[C@H](OC3OC5COC(C(C)C)OC5C(O)C3O)C3COC(=O)[C@@H]32)OCO4)cc(OC)c1OC (stereo not given in full) | inactive
CSC(SC)=C1C(=O)NN=C1C | inactive

Now examine the next entry.
-- ask Which outcome was entered for the compound N#CC1C=Cc2ccccc2N1C(=O)Oc1ccccc1 (stereo not given) in this test?
-- reply inactive

---

# System: 786-0
# experimentDescription: NCI tumour cell line growth inhibition, 48 h
The source made the active and inactive calls. Rule as the data show it: active = GI50 up to about 1.1 µM and inactive = higher.
Choose the fitting class; nothing outside active, inactive is accepted.

COC(=O)C(=O)C(CC(=O)Nc1cc(Cl)ccc1Cl)C(=O)OC (centres undefined) | inactive
CC(=O)OCC1OC(n2c(-c3ccccc3)c(/N=N/c3ccccc3)c(C)c(C#N)c2=S)C(OC(C)=O)C(OC(C)=O)C1OC(C)=O (centres undefined) | inactive
Nc1cc2c(c3ccccc13)C(CCl)CN2C(=O)c1cc2cc(NC(=O)c3cc4ccccc4o3)ccc2[nH]1 (centres undefined) | active

Now examine the next entry.
-- ask Which outcome was entered for the molecule CC(=O)C(CN(C(C)C)C(C)C)C(c1ccccc1)c1c(O)c2ccccc2oc1=O (centres undefined) in this test?
-- reply inactive

---

GI50: recorded values
# System: 786-0
# experimentDescription: NCI tumour cell line growth inhibition, 48 h
Active and inactive are the calls of the source. Cut-off read from the data, not from the text of the source: active = GI50 up to about 1.1 µM and inactive = higher.

Use the examples below as a reference point.
O=C(N[C@H]1CC2(C=C(I)C(=O)C(I)=C2)OC1=O)OCc1ccccc1 | 20.8 µM (inactive)
COc1ccccc1OCC(=N/NC(=O)c1ccncc1)/N=C/c1cccnc1 | > 100 µM (inactive)
CC(=S)NNC(=O)c1ccncc1 | > 100 µM (inactive)

// field: GI50; key: Nn1c(Cc2ccc(Cl)cc2)n[nH]c1=O ; value = > 100 µM (inactive)

// field: GI50; key: [O-][Cl+3]([O-])([O-])O.c1ccc(/N=c2\nc(N3CCOCC3)ss2)cc1 ; value = 16.4 µM (inactive)

// field: GI50; key: COc1cc(/C=C2\CCC(C)C3=C(c4cc(OC)c(OC)c(OC)c4)C(C#N)=C(N)OC32)cc(OC)c1OC (stereo unspecified) ; value = 1.95 µM (inactive)

// field: GI50; key: CC(=O)c1cccc(NC(=O)/C(=N\NC(=S)NN)C2C(=O)Nc3ccccc3[S+]2[O-])c1 (stereo unspecified) ; value = > 100 µM (inactive)

// field: GI50; key: CC(C(=O)c1ccncc1)c1ccccn1 (stereo unspecified) ; value = > 100 µM (inactive)

// field: GI50; key: O=C1C(Cl)=C(OCCCl)C(=O)c2c(O)ccc(O)c21 ; value = 6.58 µM (inactive)

// field: GI50; key: COc1ccc2c(c1)C(OC)C1c3c(cc4c(c3-2)OCO4)CCN1C (stereo unspecified) ; value = 3.64 µM (inactive)

// field: GI50; key: COC(=O)/C(C#N)=C1\NC(=O)CC(c2ccccc2)C1C#N (stereo unspecified) ; value = > 100 µM (inactive)
